# experimentalTarget: Beta-lactamase TEM (Escherichia coli, UniProt P62593)
# Sequence (P62593 whole entry): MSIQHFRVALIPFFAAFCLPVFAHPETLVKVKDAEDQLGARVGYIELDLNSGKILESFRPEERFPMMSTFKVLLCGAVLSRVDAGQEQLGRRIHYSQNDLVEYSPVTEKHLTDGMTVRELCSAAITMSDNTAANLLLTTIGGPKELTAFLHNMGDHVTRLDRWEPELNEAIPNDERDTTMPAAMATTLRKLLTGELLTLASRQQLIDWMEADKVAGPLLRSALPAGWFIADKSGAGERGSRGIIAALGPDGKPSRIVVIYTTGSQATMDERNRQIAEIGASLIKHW
# measurementNotes: ChEBML_39213
resultType: IC50 (µM)
Express the result in µM but write the number alone.

Query: Beta-lactamase TEM (Escherichia coli, UniProt P62593) / IC50 / "COC1=C(C(=O)O)N2C(=O)[C@H]([C@@H](C)O)[C@H]2C1" : value?
Result: 340
